Assay: Plasma concentration in rat 10 mg/kg, ip after 60 mins
Assay type: ADME, organism-based
Set-up: dose 10 mg/kg, route intraperitoneal
measure.name: concentration at 1 h (nM)

>>> assay_result("CC(C)N1CCC(COc2ncc(C(=O)c3ccc(Cl)cc3)n2C)CC1")
2600

====

Experiment: Oral bioavailability in rat at 10 mg/kg
Type: ADME, organism-based
Conditions: in vivo
measure.name: bioavailability (%)

>>> assay_result("CC(C)N1CCC(COc2ncc(C(=O)c3ccc(Cl)cc3)n2C)CC1")
10

====

Assay: Metabolic stability in human liver microsomes assessed as half life
Type: ADME, Microsome
measure.name: half-life (h)

>>> assay_result("Cn1c(C(=O)c2ccc(Cl)cc2)cnc1CCCCN1CCCCC1")
2.98
>>> assay_result("Cn1c(C(=O)c2ccc(Cl)cc2)cnc1SCCCN1CCCCC1")
2.48

====

The next entries give measured Ki for Histamine H3 receptor (Homo sapiens, UniProt Q9Y5N1).
measure.name: Ki (nM)

>>> assay_result("CC(C)N1CCC(COc2ncc(C(=O)c3ccccc3Cl)n2C)CC1")
1
>>> assay_result("CC(C)N1CCC(COc2ncc(C(=O)c3ccc(C(F)(F)F)cc3)n2C)CC1")
4
>>> assay_result("CC(C)N1CCC(CCOc2ncc(C(=O)c3ccc(Cl)cc3)n2C)CC1")
70
>>> assay_result("CC(C)c1ccc(C(=O)c2cnc(OCC3CCN(C(C)C)CC3)n2C)cc1")
9

====

Biological target: Histamine H3 receptor (Homo sapiens)
Sequence (Q9Y5N1 whole entry): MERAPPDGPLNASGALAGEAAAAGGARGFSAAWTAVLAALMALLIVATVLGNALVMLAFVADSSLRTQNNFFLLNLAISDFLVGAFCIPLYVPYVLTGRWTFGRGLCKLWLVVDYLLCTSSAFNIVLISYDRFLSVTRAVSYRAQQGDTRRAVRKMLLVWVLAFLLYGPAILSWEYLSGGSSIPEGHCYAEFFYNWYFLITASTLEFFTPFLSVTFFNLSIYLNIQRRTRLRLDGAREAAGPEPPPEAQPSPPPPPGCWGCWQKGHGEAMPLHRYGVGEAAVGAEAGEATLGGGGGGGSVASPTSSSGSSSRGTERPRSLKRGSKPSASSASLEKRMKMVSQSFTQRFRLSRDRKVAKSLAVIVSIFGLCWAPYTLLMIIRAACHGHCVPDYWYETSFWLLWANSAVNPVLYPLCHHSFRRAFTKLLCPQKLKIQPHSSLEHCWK
Test: Antagonist activity at human histamine H3 receptor
Type: functional
Details: read-out: pA2 (converted)
This listing pairs molecules with measured Kb.
measure.name: Kb (nM)

>>> assay_result("CC(C)N1CCC(COc2ncc(C(=O)c3ccc([N+](=O)[O-])cc3)n2C)CC1")
1
>>> assay_result("CC(C)N1CCC(COc2ncc(C(=O)c3ccc(C(F)(F)F)cc3)n2C)CC1")
0.501
>>> assay_result("Cn1c(C(=O)c2ccc(Cl)cc2)cnc1OCCCN1CCCCC1")
12.6
>>> assay_result("CC(C)N1CCC(Sc2ncc(C(=O)c3ccc(Cl)cc3)n2C)CC1")
0.501
>>> assay_result("Cn1c(C(=O)c2ccc(Cl)cc2)cnc1SCCCN1CCCCC1")
20
>>> assay_result("CN(C)CCCSc1ncc(C(O)c2ccc(Cl)cc2)n1C (stereo not given)")
3.98
>>> assay_result("CC(C)N1CCC(COc2ncc(C(=O)c3cc(Cl)cc(Cl)c3)n2C)CC1")
1
>>> assay_result("CC(C)N1CCC(Oc2ncc(C(=O)c3ccc(Cl)cc3)n2C)CC1")
6.31
>>> assay_result("CN(C)CCCSc1ncc(Cc2ccc(Cl)cc2)n1C")
6.31
>>> assay_result("CC(C)c1ccc(C(=O)c2cnc(OCC3CCN(C(C)C)CC3)n2C)cc1")
1.26
>>> assay_result("CC(C)N1CCC(COc2ncc(C(=O)c3ccc(Cl)cc3)n2C)CC1")
0.501
>>> assay_result("CN(C)CCCSc1ncc(/C(=N\\O)c2ccc(Cl)cc2)n1C")
3.98
>>> assay_result("Cn1c(C(=O)c2ccc(Cl)cc2)cnc1CCCCN1CCCCC1")
10
>>> assay_result("Cn1c(C(=O)c2ccc(Cl)cc2)cnc1NCCCN1CCCCC1")
39.8
>>> assay_result("CC(C)N1CCC(CCOc2ncc(C(=O)c3ccc(Cl)cc3)n2C)CC1")
79.4
>>> assay_result("CC(C)N1CCC(COc2ncc(C(=O)c3ccc(Br)cc3)n2C)CC1")
0.794
>>> assay_result("CC(C)N1CCC(COc2ncc(C(=O)c3ccccc3)n2C)CC1")
0.316
>>> assay_result("CN(C)CCSc1ncc(Cc2ccc(Cl)cc2)n1C")
50.1
>>> assay_result("CC(C)CCCSc1ncc(C(=O)c2ccc(Cl)cc2)n1C")
10000
>>> assay_result("CC(C)N1CCC(COc2ncc(C(=O)c3ccc(F)cc3)n2C)CC1")
0.316

From: ChEMBL document CHEMBL1143321
